Test system: SNB-75 CNS
PROTOCOL_TEXT: NCI-60 one-dose screen, 48 h (100 = growth as untreated, 0 = no growth, -100 = all killed)
PROTOCOL_CONDITIONS: 10 µM unless noted
Protocol: Growth inhibition of the SNB-75 human tumor cell line is measured as a screen for anti-cancer activity. Cells are grown in 96 well plates and exposed to the test compound for 48 hours. Compounds are tested at a single concentration, which is 10^-5 M for most compounds. The reported endpoint is percent growth (GI% or GIPRCNT), where numbers from 0 - 100% represent growth inhibition, and numbers from -100% - 0 represent cell death. For example, a value of 40 represents 60% growth inhibition. […]
Compounds without any hit were thinned out: in the full panel of roughly 83,000, 20% have a hit. Calls of active or inactive are those of the source. The calls were made as follows: active = growth percent below 10; inactive = the rest.
PARAMETER: growth

COMPOUND: Cc1ccc(C2CC(c3ccc(Nc4ccnc5cc(Cl)ccc45)cc3)=NN2C=O)cc1 (stereo not given)
PARAMETER: growth
RESULT_VALUE: 76.3% (inactive)
--
COMPOUND: CC1Cc2c(ncn3c(-c4ccc(F)cc4)nnc23)N(C)c2ccccc21 (stereo not given)
PARAMETER: growth
RESULT_VALUE: -7.85% (active)
--
COMPOUND: c1cc(NCCc2ccncc2)nc(-n2cnc3ccccc32)c1
PARAMETER: growth
RESULT_VALUE: 112% (inactive)
--
COMPOUND: CCc1ccccc1-n1c(N)c(C#N)c(-c2ccc(Cl)cc2)c(C#N)c1=O
PARAMETER: growth
RESULT_VALUE: 90.5% (inactive)
--
COMPOUND: CC(=O)OC[C@H]1OC(Sc2sc(C(=O)c3ccc(C)cc3)c(N)c2-c2nc3ccccc3s2)[C@H](OC(C)=O)[C@@H](OC(C)=O)[C@@H]1OC(C)=O (stereo not given in full)
PARAMETER: growth
RESULT_VALUE: 25.4% (inactive)
--
COMPOUND: CC(=O)O.CN1[CH-]N(Cc2ccc(C#N)cc2)c2ccccc21.[Ag+]
PARAMETER: growth
RESULT_VALUE: 94.7% (inactive)
--
COMPOUND: COc1cc2cc(Oc3ccc(NC(=O)Nc4cc(C(F)(F)F)cc(C(F)(F)F)c4)cc3)c(C)nc2cc1OCCN1CCOCC1
PARAMETER: growth
RESULT_VALUE: 36% (inactive)
--
COMPOUND: Oc1ccc(C#CCOc2ccccc2)cc1CNCCN(Cc1ccccn1)Cc1ccccn1
PARAMETER: growth
RESULT_VALUE: 25.6% (inactive)
--
COMPOUND: C[C@H]1[C@H]2[C@H]3CC[C@@H]4[C@@]5(C)CC[C@H](O)C(C)(C)[C@@H]5CC[C@@]4(C)[C@]3(C)CC[C@]23CO[C@]1(C)[C@@H](C(=O)/C=C\c1cccnc1)C3
PARAMETER: growth
RESULT_VALUE: 72.8% (inactive)
--
COMPOUND: COc1ccc(-c2cc(-c3ccc(Cl)cc3)c(C#N)c(=O)n2CCCCCC(=O)Nc2ccccc2N)cc1
PARAMETER: growth
RESULT_VALUE: -6.08% (active)
--
COMPOUND: COC(=O)c1ccc2[nH]c(O)c(C(=Nc3ccc(N(C)C(=O)CN4CCN(C)CC4)cc3)c3ccccc3)c2c1
PARAMETER: growth
RESULT_VALUE: -4.83% (active)
--
COMPOUND: COc1ccc(-c2cc3c4c(nc5ccccc5c4c2)CC(c2cc(OC)c(OC)c(OC)c2)O3)cc1 (stereo not given)
PARAMETER: growth
RESULT_VALUE: -30% (active)
--
COMPOUND: CNCCCNc1nc2ccccc2c2c(=O)c3cc(F)ccc3sc12
PARAMETER: growth
RESULT_VALUE: 59.5% (inactive)
--
COMPOUND: COc1cc(C2CC(c3ccc(SC)cc3)=NN2C(C)=O)cc(OC)c1OC (stereo not given)
PARAMETER: growth
RESULT_VALUE: 11.9% (inactive)
--
COMPOUND: Cc1cc(-c2cc(C)c(N)cc2C)c(C)cc1N
PARAMETER: growth
RESULT_VALUE: 101% (inactive)
--
COMPOUND: O=[N+]([O-])c1ccccc1NCSc1ccc(Cl)cc1
PARAMETER: growth
RESULT_VALUE: 87.3% (inactive)
--
COMPOUND: CCOC(=O)CCN(C(=O)Nc1ccccc1)C1CCCCC1
PARAMETER: growth
RESULT_VALUE: 83.5% (inactive)
--
COMPOUND: O=c1ccc(N=Nc2ccccc2)ccc1Cl
PARAMETER: growth
RESULT_VALUE: 74.5% (inactive)
--
COMPOUND: CCCCCCCCCCCCCCCCCCOc1ccccc1CCCOP(=O)(O)OCC[N+](C)(C)C
PARAMETER: growth
RESULT_VALUE: 83.3% (inactive)
--
COMPOUND: Cc1cccc(OCC(O)CN2CCN(c3ccc(Cl)cc3)CC2)c1 (stereo not given)
PARAMETER: growth
RESULT_VALUE: 95.1% (inactive)

Data provenance: PubChem BioAssay (NCI)
